test system: NCI-H226; experiment: NCI tumour cell line growth inhibition, 48 h
Active and inactive are the calls of the source. No stated cut-off is given here; in the data, active = GI50 up to about 1.1 µM and inactive = higher.
Classes used: active, inactive

1) CC1(C)C[C@@H]2C1CCC1(C)CC2(O)CC[C@H]1O (some centres not stated) ... inactive
2) COC(=O)C1CCC(=O)N1C(c1ccc(OC)cc1)c1cc(OC)c(OC)c(OC)c1 (configuration not stated) ... active
3) C/C(=N\N=C(N)N)c1sc(-c2nc(C)c(/C(C)=N/N=C(N)N)s2)nc1C ... inactive
4) C=C(CCC/C(C)=C/C=C/[C@H](C)CCCc1ccoc1)C[C@@H]1OC(=O)[C@H](C)[C@@H]1O ... inactive
5) CC[C@@]1(O)C[C@H](OC2CC(N(C)C)C(OC3CC(O)C(OC4CC(O)C(O)C(C)O4)C(C)O3)C(C)O2)c2c(cc3c(c2O)C(=O)c2c(O)ccc(O)c2C3=O)[C@H]1C(=O)OC (some centres not stated) ... active
6) Cc1ccsc1/C=N/Nc1ccc2ccccc2n1 ... inactive
7) CCN(CC)c1ccc2c(c1)OC(=O)C(c1nnc(-c3ccc([N+](=O)[O-])cc3)o1)C2 (configuration not stated) ... inactive
